These measurements were taken from the array DNA melting data of Ke et al. (doi:10.1101/2024.01.08.574731).

The reader will find reported Tm values listed item by item below.
- EXPERIMENT: melting temperature; fluorescence melt of hairpins on a sequencing array, two-state fit, raised by 9.35 °C to match UV melts
- MEASUREMENT CONTEXT: sodium 0.088 M

{"columns": ["RESIDUE STRING", "READOUT UNITS", "Tm"],
 "data": [
  ["GGGTTGGGAAACCGACTC (.((.((....)).)).)", "°C", 41.2],
  ["GCGTGCGGAAACGTACGC ((((.((....)).))))", "°C", 66.3],
  ["GCTGCCGAAAGGCCAAGC ((((((....)))..)))", "°C", 46.3],
  ["GTTCGCGAAAGCGATAAC ((((((....)))..)))", "°C", 32.7],
  ["GTTTTAGGAAACTAAAAC (((((((....)))))))", "°C", 48.4],
  ["GCGACGGTTCGC ((((....))))", "°C", 49.1],
  ["GATATAGGAAACTATGTC ((.((((....)))).))", "°C", 33.5],
  ["GATCCCCGAAGGGATC ((((((....))))))", "°C", 57.1],
  ["GAAACCCCGAAAGGGTTC (((..(((....))))))", "°C", 35.7],
  ["GTATCACCGAAAGGTTAC (((..(((....))))))", "°C", 25.8],
  ["GCGAGGAAACTCGC (((((....)))))", "°C", 66.4],
  ["GATCAACATTTGATC ((((((...))))))", "°C", 38.2],
  ["GTTCAGAAATGAAC (((((....)))))", "°C", 41.8],
  ["GATCATATAAATGATC ((((((....))))))", "°C", 43.7],
  ["GAACGCCGAAAGGCATTC (((.(((....))).)))", "°C", 43.3],
  ["GAATACGAAAGTATCTTC ((((((....)))..)))", "°C", 46.2],
  ["GCGACTGATCGC ((((....))))", "°C", 46.8],
  ["GCCATGTCGAAAGACGGC (((..(((....))))))", "°C", 51.5],
  ["GTATGCGAAAGCAATAC ((((((....))).)))", "°C", 49.4],
  ["GATCTCCTTGGAGATC ((((((....))))))", "°C", 60.5],
  ["GCTCTCCGAAAGGACAGC (((.(((....))).)))", "°C", 41.3],
  ["GCTATTCGAAAGAAAGC (((.(((....))))))", "°C", 32.1],
  ["GATCTGAGCACAGATC ((((((....))))))", "°C", 49.5],
  ["GTTTGCGAAAGCAACAAC ((((((....)))..)))", "°C", 33.7],
  ["AGATCGAAAGATCT (((((....)))))", "°C", 50.9],
  ["GCGACGCGAAAGCATTGC ((.(.((....)).).))", "°C", 40.5],
  ["GATCAAGGAATTGATC ((((((....))))))", "°C", 47.6],
  ["GGAGTGGCGAAAGCCTCC (((..(((....))))))", "°C", 44],
  ["GCGGTCGCGAAAGCGCGC (((..(((....))))))", "°C", 59.7],
  ["GTCACGGGAAACTGTGAC (((((.(....).)))))", "°C", 54.6],
  ["GAACATGGAAACGTGTTC (((((.(....).)))))", "°C", 44.8],
  ["GCGAACATTCGC ((((....))))", "°C", 48.2],
  ["CGGTCCGGAAACGGCCG (((.(((....))))))", "°C", 57.6],
  ["CGTACGGAAACGTCCACG ((((((....)))..)))", "°C", 30.2],
  ["GAAATGGGAAACCATTTC (((((((....)))))))", "°C", 53.9],
  ["GGAGCCGGAAACGGCTTC (.(((((....))))).)", "°C", 60.8],
  ["GCGATAACGAAAGTTCGC (((..(((....))))))", "°C", 51.1],
  ["GCCCCCGAAAGGGTGGGC ((((((....)))..)))", "°C", 63.2],
  ["GGGCTGGGAAACCGGTCC ((.(.((....)).).))", "°C", 49.2],
  ["GTACGGCCGAAAGGCTAC (((..(((....))))))", "°C", 28.7],
  ["GCAATCCGAAAGGACTGC (((.(((....))).)))", "°C", 49.8],
  ["GCATGCGAAAGCAGGTGC ((((((....)))..)))", "°C", 51.1],
  ["GCTAAGCGAAAGCAGAGC (((..((....))..)))", "°C", 43.4],
  ["ACACGGAAACGTGT (((((....)))))", "°C", 55.1],
  ["GATCCAGCCTGGATC ((((((...))))))", "°C", 52.2]
]}

====

- EXPERIMENT: folding enthalpy; higher = less favourable; fluorescence melt of hairpins on a sequencing array, two-state fit
- MEASUREMENT CONTEXT: sodium 0.088 M
EXPERIMENTAL READOUT: folding enthalpy (kcal/mol)

{"columns": ["RESIDUE STRING", "NUMBER"],
 "data": [
  ["GGCAGCCCGAAAGGGGCC (((..(((....))))))", -13.3],
  ["GATCGAATAGTCGATC ((((((....))))))", -34.8],
  ["GTCACCGAAAGGTCTGAC ((((((....)))..)))", -15.2],
  ["GGCTTGCGAAAGCATGCC (((.(((....))).)))", -31.4],
  ["GTGCTCGAAAGAGCCAC ((((((....))).)))", -11.2],
  ["GGAGCCGAAAGGCTCTCC ((((((....)))..)))", -7.29],
  ["GGCGTTGGAAACGATGCC (((.(.(....).).)))", -24.9],
  ["GGCGGCGAAAGCCCTGCC ((((((....)))..)))", -20.1],
  ["GTATGCGGAAACGCATGC (.(((((....))))).)", -21.2],
  ["GCGGACAGCCGC ((((....))))", -17.4]
]}

====

The reader will find reported Tm values listed item by item below.
- EXPERIMENT: melting temperature; fluorescence melt of hairpins on a sequencing array, two-state fit, raised by 9.35 °C to match UV melts
- MEASUREMENT CONTEXT: sodium 0.088 M

{"columns": ["RESIDUE STRING", "READOUT UNITS", "Tm"],
 "data": [
  ["GGCATAACGAAAGTTGCC (((..(((....))))))", "°C", 50.8],
  ["GTCCTCGAAAGAGTGAC ((((((....))).)))", "°C", 46.3],
  ["GCGGACAACCGC ((((....))))", "°C", 53.1],
  ["GGTCGGGGAAACCCGATC (.(((((....))))).)", "°C", 56.7],
  ["GCACTGGGAAACCAGCGC ((.((((....)))).))", "°C", 51.9],
  ["GCGTTAGGAAACTGACGC ((((.((....)).))))", "°C", 53.6],
  ["GATCGAGTCTCGATC ((((((...))))))", "°C", 53.2],
  ["GTCTCCGAAAGGAGGAC ((((((....))).)))", "°C", 50.8],
  ["GATCGCCTCGCGATC ((((((...))))))", "°C", 68.7],
  ["GTAAACGGAAACGTTCAC ((.((((....)))).))", "°C", 32.4],
  ["GGGGGCGAAAGCCGTCCC ((((((....)))..)))", "°C", 49.4],
  ["GTGCGCGGAAACACGCAC (((((.(....).)))))", "°C", 59.7],
  ["GAGTAACGAAAGTTCCTC (((.(((....))).)))", "°C", 38],
  ["GATCAGATGCCTGATC ((((((....))))))", "°C", 48.4],
  ["GTTACCCGAAAGGGGAAC (((.(((....))).)))", "°C", 61.5],
  ["GATCAATGTGTTGATC ((((((....))))))", "°C", 50.4],
  ["GTACCCGAAAGGGGATAC ((((((....)))..)))", "°C", 41.9],
  ["GATCTGAACGCAGATC ((((((....))))))", "°C", 46.3],
  ["GCGTCCGGACGC ((((....))))", "°C", 60.3],
  ["GTGCTAGGAAACTGGCAC ((((.((....)).))))", "°C", 53.5],
  ["GAAGTCCGAAAGGATTTC (((.(((....))).)))", "°C", 50.2],
  ["GCACAATCGAAAGATTGC (((..(((....))))))", "°C", 34.5],
  ["GGTTTAGGAAACTAAATC (.(((((....))))).)", "°C", 35.5],
  ["GTGCTCGAAAGAGGCAC ((((((....))).)))", "°C", 55.2],
  ["GATGGCGAAAGCCGTATC ((((((....)))..)))", "°C", 43.8],
  ["GCCGATGGAAACACCGGC ((((.((....)).))))", "°C", 52.4]
]}
